# assay-procedure: Brain to plasma permeability coefficient, Kp of the compound in Sprague-Dawley rat administered as iv cassette dose measured at 0.25 hrs post dose
# Format: ADME, organism-based
# stated-conditions: brain, 0.25 h
assay-metric: Kp

{"chem-smiles": "Cc1nnc2sc(C(=O)NC3CN(c4nc5cccnc5s4)C3)c(N)c2c1C", "comparison-sign": "=", "readout-number": 0.17}
{"chem-smiles": "Cc1nnc2sc(C(=O)NC3CN(C(=O)c4ccncc4)C3)c(N)c2c1C", "comparison-sign": "=", "readout-number": 0.03}
{"chem-smiles": "Cc1nnc2sc(C(=O)NC3CN(c4ccc(C(F)(F)F)nc4)C3)c(N)c2c1C", "comparison-sign": "=", "readout-number": 0.12}
{"chem-smiles": "COc1cncc(N2CC(NC(=O)c3sc4nnc(C)c(C)c4c3N)C2)c1", "comparison-sign": "<", "readout-number": 0.05}
{"chem-smiles": "Cc1nnc2sc(C(=O)NC3CN(c4ccccc4)C3)c(N)c2c1C", "comparison-sign": "=", "readout-number": 0.57}

====

# system: UniProt:P08173
# Sequence (P08173 whole entry): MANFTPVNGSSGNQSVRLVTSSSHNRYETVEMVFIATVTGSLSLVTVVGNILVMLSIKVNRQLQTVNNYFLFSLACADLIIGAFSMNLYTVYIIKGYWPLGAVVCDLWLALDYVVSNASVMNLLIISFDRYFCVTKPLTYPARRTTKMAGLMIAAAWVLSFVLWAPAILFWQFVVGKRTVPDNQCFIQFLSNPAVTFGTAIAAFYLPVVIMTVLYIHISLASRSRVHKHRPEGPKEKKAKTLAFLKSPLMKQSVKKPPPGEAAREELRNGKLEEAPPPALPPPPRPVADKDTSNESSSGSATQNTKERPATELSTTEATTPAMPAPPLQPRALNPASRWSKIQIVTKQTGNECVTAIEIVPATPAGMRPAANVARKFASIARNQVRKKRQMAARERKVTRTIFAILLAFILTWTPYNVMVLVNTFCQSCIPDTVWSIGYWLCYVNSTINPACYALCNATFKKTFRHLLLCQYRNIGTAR
# assay-procedure: Positive allosteric modulation of human M4 receptor expressed in CHO cells co-expressing Gqi5 assessed as increase in acetylcholine-induced calcium mobilization relative to acetylcholine
# Assay type: functional, cell-based
%max values, listed per item

{"chem-smiles": "Cc1nnc2sc(C(=O)NC3CN(c4cccnc4F)C3)c(N)c2c1C", "%max": "82%"}
{"chem-smiles": "Cc1nnc2sc(C(=O)NC3CN(c4ccncn4)C3)c(N)c2c1C", "%max": "83%"}
{"chem-smiles": "Cc1nnc2sc(C(=O)NC3CN(c4cncnc4)C3)c(N)c2c1C", "%max": "89%"}
{"chem-smiles": "Cc1nnc2sc(C(=O)NC3CN(S(=O)(=O)c4ccccc4)C3)c(N)c2c1C", "%max": "70%"}
